This collection of values is drawn from patent US20060257938A1.

Experiment: Probe fluorescence ratio response to stearic acid relative to ADIFAB2
Type: binding
Details: response relative to ADIFAB2
Listed here are molecules together with their documented DR/DR SA.

Molecule	DR/DR SA
72T 74I (protein, listed as Rattus norvegicus, PEPTIDE (1)...(131) wild-type rat intestinal fatty acid binding protein) AFDGTWKVDRNENYEKFMEKMGINVVKRKLGAHDNLKLTITQEGNKFTVKESSNFRNIDVVFELGVDFAYSTAIGTELTGTWTMEGNKLVGKFKRVDNGKELIAVREISGNELIQTYTYEGVEAKRIFKKE	1.806

In the following, a different molecule is considered.
Assign DR/DR SA to the following record: 14I 18L 31W 73V 117G 72A (protein, listed as Rattus norvegicus, PEPTIDE (1)...(131) wild-type rat intestinal fatty acid binding protein) AFDGTWKVDRNENIEKFLEKMGINVVKRKLWAHDNLKLTITQEGNKFTVKESSNFRNIDVVFELGVDFAYSAVDGTELTGTWTMEGNKLVGKFKRVDNGKELIAVREISGNELIQTGTYEGVEAKRIFKKE 0.606
